Known Vss (L/kg), volume of distribution of a selection of molecules
measurementConditions: rat, IV; […] (1h, 2r), 5 mg/kg (5Ha, 5Hc)
Please don't drop the unit; write it after the number.

Here's what some known entries look like.
INSERT INTO assay_data (molecule, result) VALUES
  ('COc1cc(C(=O)c2csc(Nc3ccccc3)n2)cc(OC)c1OC.Cl [5Ha]', '1.4 ± 0.2 L/kg'),
  ('COc1cc(C(=O)c2csc(-c3ccccc3)n2)cc(OC)c1OC [1h]', '4.9 ± 1.9 L/kg'),
  ('COc1cc(C(=O)c2csc(Nc3ccc(F)cc3)n2)cc(OC)c1OC.Cl [5Hc]', '1.4 ± 0.2 L/kg');

# input for lookup
IN: GET /values?readout=Vss (L/kg), volume of distribution&item= COc1cc(C(=O)c2csc(-c3ccc(CN)cc3)n2)cc(OC)c1OC.Cl [2r]
OUT: 0.33 ± 025 L/kg

---

experimentSummary: in vivo
measurementConditions: mouse, po, 20 mg/kg
recordedEndpoint: AUC (ng·h/mL)
Write the answer as a number in ng·h/mL, unit excluded.

IN: Value lookup for AUC; key = COc1cc(C(=O)c2c[nH]c(-c3ccc(Cl)cc3)n2)cc(OC)c1OC [12fa]
OUT: 3350

---

Tested on: NCI/ADR-RES
experimentSummary: SRB growth inhibition, P-gp over-expressing MDR line
Type: cell-based, human
measurementConditions: Homo sapiens, NCI/ADR-RES; MDR1 overexpressed, n=3; read-out: IC50 ± SEM (nmol/L) NCI/ADR-RES
recordedEndpoint: IC50

IN: Lab request: please report IC50 under test system NCI/ADR-RES for COc1ccc(S(=O)(=O)Nc2cccnc2Nc2ccc(O)cc2)cc1 [ABT-751]
OUT: 864 nmol/L

---

Tested on: B16-F1
experimentSummary: SRB cell growth inhibition (cytotoxicity) assay
Assay type: cell-based, mouse
measurementConditions: Mus musculus; B16-F1 melanoma cells, 48 h, SRB; read-out: IC50 ± SEM (nM) B16-F1
recordedEndpoint: IC50 (nM)
Lab book: enter the figure in nM, no units written.

Example cases with answers are listed next.
INSERT INTO measurements (compound, recordedendpoint, numericresult) VALUES
  ('COc1ccc(-c2nc(C(=O)c3ccc(F)cc3)cn2S(=O)(=O)c2ccccc2)cc1 [11cb]', 'IC50', 71),
  ('Cc1ccc(-c2nc(C(=O)c3ccc(F)cc3)cn2S(=O)(=O)c2ccccc2)cc1 [11db]', 'IC50', 287),
  ('O=C(c1ccc(F)cc1)c1cn(S(=O)(=O)c2ccccc2)c(-c2ccccc2)n1 [11af]', 'IC50', 946),
  ('COc1cc(C(=O)c2c[nH]c(-c3ccc(C(F)(F)F)cc3)n2)cc(OC)c1OC [12pa]', 'IC50', 469);

Now for another entry.
IN: What value of measured IC50 is listed for COc1cc(C(=O)c2c[nH]c(-c3ccc(Br)cc3)n2)cc(OC)c1OC [12la] ?
OUT: 74

---

Tested on: LNCaP
experimentSummary: cells
measurementConditions: Homo sapiens, 96 h, read-out: IC50 ± SEM (nM), LNCaP
recordedEndpoint: IC50 (nM)
Entry rule: numbers only, all in nM.

Consider the following illustrative entries.
INSERT INTO assay_data (compound, numericresult) VALUES
  ('COc1cc(/C(=C\C#N)c2csc(-c3ccccc3)n2)cc(OC)c1OC [2c-cis]', 1990),
  ('COc1cc(C(=O)c2c[nH]c(-c3ccc(N(C)C)cc3)n2)cc(OC)c1OC [12ga]', 58),
  ('COc1cc(C(=O)c2cn(C)c(-c3ccc(C)cc3)n2)cc(OC)c1OC', 32),
  ('Cc1ccc(-c2nc(C(=O)c3ccc(F)cc3)c[nH]2)cc1 [12db]', 45);

With those in mind, consider the next compound.
IN: Which IC50 is reported with LNCaP for this entry: `COc1cc(C(=O)c2csc(-c3ccccc3)n2)cc(OC)c1OC` ?
OUT: 28
